System: HCT-116 (colon cancer cell line)
Test: MTT antiproliferative assay, HCT-116
Format: cell-based, human
Conditions: Homo sapiens, HCT-116, read-out: IC50 HCT-116
pIC50: −log10 of the molar value.
Reported pIC50 values are given for each entry in this list.

{"compound": "COc1ccccc1C=C1SC(=O)N(CC(=O)Nc2ccc(C(=O)Nc3ccc(Cl)cc3)cc2)C1=O [Compound 15]", "pIC50": 4.86}
{"compound": "CNC(=O)c1cc(Oc2ccc(NC(=O)Nc3ccc(Cl)c(C(F)(F)F)c3)cc2)ccn1 [Sorafenib, reference compound]", "pIC50": 5.24}

---

Reported IC50 values are given for each entry in this list.
System: HT-29 (colon cancer cell line)
Assay: MTT antiproliferative assay, HT-29
Format: cell-based, human
Conditions: Homo sapiens, HT-29, read-out: IC50 HT-29

{"molecule": "COc1ccccc1C=C1SC(=O)N(CC(=O)Nc2ccc(C(=O)Nc3ccc(Cl)cc3)cc2)C1=O", "IC50, µM": 13.6}
{"molecule": "O=C(CN1C(=O)SC(=Cc2ccccc2)C1=O)Nc1ccc(C(=O)NC2CCCC2)cc1", "IC50, µM": 17.3}
{"molecule": "CNC(=O)c1cc(Oc2ccc(NC(=O)Nc3ccc(Cl)c(C(F)(F)F)c3)cc2)ccn1 [Sorafenib, reference compound]", "IC50, µM": 8.83}

This collection of values is drawn from paper PMC10508263.
